target: apx1049; construct: N-terminal hexahistidine tag; original design; assay: Isothermal titration calorimetry at 25 °C with warfarin or apixaban, 5% DMSO in all solutions, single-site binding model.; details: read-out: KD (μM), ITC, warfarin and apixaban
property: Kd (µM)
Give bare numbers, in µM.

State the recorded Kd for this entry: `COc1ccc(-n2nc(C(N)=O)c3c2C(=O)N(c2ccc(N4CCCCC4=O)cc2)CC3)cc1`
0.679

----------
molecular target: hcy129_mpnn5; construct: ProteinMPNN surface-redesigned version; 9 mutations compared to the original design as printed; test: Isothermal titration calorimetry at 25 °C with cortisol, 1% DMSO in all solutions, single-site binding model.; conditions: read-out: KD (μM), ITC, cortisol
property: Kd (µM)
One number for each entry, in µM.

Which Kd is reported for this compound? C[C@]12CCC(=O)C=C1CC[C@@H]1[C@@H]2[C@@H](O)C[C@@]2(C)[C@H]1CC[C@]2(O)C(=O)CO [cortisol, cortisol (HCY)]
3.4

----------
target: roc22182.1; construct: N-terminal hexahistidine tag; 9 mutations compared to the original design; experiment: Isothermal titration calorimetry at 25 °C with rocuronium in 20 mM HEPES, 50 mM NaCl, pH 8, no DMSO, single-site binding model.; conditions: read-out: KD (μM), ITC, rocuronium
property: Kd

Entry C=CC[N+]1([C@H]2C[C@H]3[C@@H]4CC[C@H]5C[C@H](O)[C@@H](N6CCOCC6)C[C@]5(C)[C@H]4CC[C@]3(C)[C@H]2OC(C)=O)CCCC1 [rocuronium, rocuronium (ROC)] : reported Kd = ?
> 4 µM

----------
biological target: roc22182; construct: N-terminal hexahistidine tag; original design; assay: Isothermal titration calorimetry at 25 °C with rocuronium in 20 mM HEPES, 50 mM NaCl, pH 8, no DMSO, single-site binding model.; settings: read-out: KD (μM), ITC, rocuronium
property: Kd

May I ask what Kd has been recorded for C=CC[N+]1([C@H]2C[C@H]3[C@@H]4CC[C@H]5C[C@H](O)[C@@H](N6CCOCC6)C[C@]5(C)[C@H]4CC[C@]3(C)[C@H]2OC(C)=O)CCCC1 [rocuronium, rocuronium (ROC)] ?
> 50 µM

----------
target: wrf929; construct: N-terminal hexahistidine tag; original design; experiment: Isothermal titration calorimetry at 25 °C with warfarin or apixaban, 5% DMSO in all solutions, single-site binding model.; settings: read-out: KD (μM), ITC, warfarin and apixaban
property: Kd (µM)
Give bare numbers, in µM.

Form field: reported Kd of CC(=O)CC(c1ccccc1)c1c(O)c2ccccc2oc1=O (stereo not shown) [warfarin, warfarin (WRF)]
5.9

----------
target: hcy129; construct: N-terminal hexahistidine tag; original design; assay: Isothermal titration calorimetry at 25 °C with cortisol, 1% DMSO in all solutions, single-site binding model.; settings: read-out: KD (μM), ITC, cortisol
property: Kd (µM)
Answers are plain numbers, in µM.

So what Kd did `C[C@]12CCC(=O)C=C1CC[C@@H]1[C@@H]2[C@@H](O)C[C@@]2(C)[C@H]1CC[C@]2(O)C(=O)CO` get with hcy129?
2.3

----------
biological target: wrf1071; construct: N-terminal hexahistidine tag; original design; assay: Isothermal titration calorimetry at 25 °C with warfarin or apixaban, 5% DMSO in all solutions, single-site binding model.; conditions: read-out: KD (μM), ITC, warfarin and apixaban
property: Kd (µM)
One number for each entry, in µM.

Give its Kd value. Item: CC(=O)CC(c1ccccc1)c1c(O)c2ccccc2oc1=O (stereo not shown)
0.83
